- MEASUREMENT PROTOCOL: Chronic toxicity of suppositories: indexes of peripheral blood
- Type: in vivo, rats
- RECORDED CONDITIONS: male rats, suppositories rectally, 500 mg/kg, 2 months; control 4.4 + 1.2
QUANTITY NAME: Eosinophiles (%)
Respond with the bare value in %.

Look at this compound and give its reported Eosinophiles. O=c1[nH]n([C@@H]2O[C@H](CO)[C@@H](O)[C@H]2O)c(=O)c2nc(O)cnc12.[Na].[Na]
3.8

# get_value(readout='Eosinophiles', item= Nc1cccc2c(=O)[nH][nH]c(=O)c12.[Na] )
3.2

Query: Eosinophiles; subject: O=C([O-])c1ncnc2c(=O)n([C@@H]3O[C@H](CO)[C@@H](O)[C@H]3O)[nH]c(=O)c12.[Na+]
3.9

Look up Eosinophiles: O=c1[nH][nH]c(=O)c2c(Br)ncnc12.[K]
4.1

----------
- MEASUREMENT PROTOCOL: Electrochemical activity: polarographic reduction on mercury dripping electrode
- Assay type: physicochemical
- RECORDED CONDITIONS: pH 7.6; vs SCE, 37° C., forward trace; average for the group of compounds
Please respond with reported −E1/2 for every item in the list.
Give the quantity in V, number only.

Which measured −E1/2 value corresponds to O=c1[nH][nH]c(=O)c2nccnc12.[Li] ?
0.16

For the compound Nc1cccc2c(=O)[nH][nH]c(=O)c12.[Na] , what −E1/2 is on record?
0.09

Param item = O=c1[nH]n([C@@H]2O[C@H](CO)[C@@H](O)[C@H]2O)c(=O)c2nc(O)cnc12.[Na].[Na] ; retrieve measured −E1/2.
0.16

# lookup: −E1/2 of O=C([O-])c1ccc2c(=O)[nH][nH]c(=O)c2c1.O=C([O-])c1ccc2c(=O)[nH][nH]c(=O)c2c1.[Na+].[Na+]
0.09

Form field: reported −E1/2 of O=c1[nH]n([C@@H]2O[C@H](CO)[C@@H](O)[C@H]2O)c(=O)c2ncnc(O)c12.[Na]
0.09

// query −E1/2 value for entry COP(=O)(OC)C(C)(C)CC(C)=O [Dimesphosphon, reference compound]
0.18

Report −E1/2 for Nc1cccc2c(=O)n([C@@H]3O[C@H](CO)[C@@H](O)[C@H]3O)[nH]c(=O)c12.[Na] please.
0.09

Entry O=c1[nH]n([C@@H]2O[C@H](CO)[C@@H](O)[C@H]2O)c(=O)c2ncccc12.[Na] : reported −E1/2 = ?
0.105

Reported −E1/2 for O=c1[nH][nH]c(=O)c2ncccc12.[Na] : what is it?
0.105

Any idea what its −E1/2 is? The compound is Nc1ncc2c(=O)[nH][nH]c(=O)c2n1
0.09

# −E1/2 lookup, item O=c1[nH][nH]c(=O)c2ncncc12.[Li]
0.09

----------
- MEASUREMENT PROTOCOL: Chronic toxicity of suppositories: indexes of peripheral blood
- Assay type: in vivo, rats
- RECORDED CONDITIONS: male rats, suppositories rectally, 50 mg/kg, 1 month; control 81.4 ± 1.7
Kindly supply the reported Average volume of erythrocytes values for the records listed here.
Express your answer in Mkm^3, writing the number without its unit.

Reported Average volume of erythrocytes for Nc1cccc2c(=O)[nH][nH]c(=O)c12.[Na] : what is it?
84.4

Need Average volume of erythrocytes, item O=c1[nH]n([C@@H]2O[C@H](CO)[C@@H](O)[C@H]2O)c(=O)c2nc(O)cnc12.[Na].[Na]
82.7

# query: Average volume of erythrocytes of entry O=c1[nH][nH]c(=O)c2c(Br)ncnc12.[K]
83.9

Reported Average volume of erythrocytes for O=C([O-])c1ncnc2c(=O)n([C@@H]3O[C@H](CO)[C@@H](O)[C@H]3O)[nH]c(=O)c12.[Na+] : what is it?
81.6

----------
Could you please report measured ALT in blood plasma, Ci for the items listed next?
- MEASUREMENT PROTOCOL: Morphine abstinence model: indicator enzymes ALT, AST, γ-GTP in blood plasma
- RECORDED CONDITIONS: Control + compound, 20.0 mg/kg intramuscularly three times a day; control 106.76 ± 111.35
Report only the number, with the unit mE/l understood.

Give the measured ALT in blood plasma, Ci of O=c1[nH][nH]c(=O)c2ncccc12.[Li] .
114.5

Looking for the measured ALT in blood plasma, Ci of O=c1[nH][nH]c(=O)c2c(Br)ncnc12.[K] , can you help?
113.84

Suppose we examine the compound O=c1[nH][nH]c(=O)c2nccnc12.[Li] ; what ALT in blood plasma, Ci value has been reported?
115.27

Recorded ALT in blood plasma, Ci for Nc1cccc2c(=O)[nH][nH]c(=O)c12.[Na] , please?
113.48

----------
Consider the following molecules; for each one, report its Haematocrite.
- MEASUREMENT PROTOCOL: Chronic toxicity of suppositories: indexes of peripheral blood
- Assay type: in vivo, rats
- RECORDED CONDITIONS: male rats, suppositories rectally, 50 mg/kg, 2 months; control 45.9 ± 1.8
Answer with a number only, understood to be in %.

GET /values?readout=Haematocrite&item= O=C([O-])c1ncnc2c(=O)n([C@@H]3O[C@H](CO)[C@@H](O)[C@H]3O)[nH]c(=O)c12.[Na+] [Compound 34]
47.5

Need Haematocrite, item O=c1[nH][nH]c(=O)c2c(Br)ncnc12.[K] [Compound 37]
47.5

Haematocrite lookup needed for Nc1cccc2c(=O)[nH][nH]c(=O)c12.[Na] [Compound 15] , thanks.
47.5

Quick one: Haematocrite for O=c1[nH]n([C@@H]2O[C@H](CO)[C@@H](O)[C@H]2O)c(=O)c2nc(O)cnc12.[Na].[Na] [Compound 23] ?
46.5

----------
- MEASUREMENT PROTOCOL: Chronic toxicity of suppositories: indexes of peripheral blood
- Type: in vivo, rats
- RECORDED CONDITIONS: male rats, suppositories rectally, 50 mg/kg, 1 month; control 45.9 ± 1.7
QUANTITY NAME: Haematocrite (%)
Could you give me the number in %? Just the number is fine.

For Nc1cccc2c(=O)[nH][nH]c(=O)c12.[Na] [Compound 15] , what is its reported Haematocrite?
47.9

Entry under review: O=c1[nH]n([C@@H]2O[C@H](CO)[C@@H](O)[C@H]2O)c(=O)c2nc(O)cnc12.[Na].[Na] [Compound 23] . Reported Haematocrite?
47.7

Give its Haematocrite value. Item: O=C([O-])c1ncnc2c(=O)n([C@@H]3O[C@H](CO)[C@@H](O)[C@H]3O)[nH]c(=O)c12.[Na+] [Compound 34]
46.9

Query (compound): O=c1[nH][nH]c(=O)c2c(Br)ncnc12.[K] [Compound 37] ; field requested: Haematocrite
47.8

----------
- MEASUREMENT PROTOCOL: Morphine abstinence model: nitrites/nitrates NOX− in blood plasma, liver and brain
- Format: in vivo, rats Wistar
- RECORDED CONDITIONS: Control + Morphine + compound, 20.0 mg/kg intramuscularly; control 4.63 ± 0.29
For each of the molecules below, state its Nitrites in brain: Cortex of cerebrum.

So what does the record say about Nitrites in brain: Cortex of cerebrum for O=c1[nH][nH]c(=O)c2ncccc12.[Li] ?
5.12 ± 0.18 nmol/mg of protein

Form field: reported Nitrites in brain: Cortex of cerebrum of Nc1cccc2c(=O)[nH][nH]c(=O)c12.[Na]
4.72 ± 0.37 nmol/mg of protein

What value of measured Nitrites in brain: Cortex of cerebrum is listed for O=c1[nH][nH]c(=O)c2c(Br)ncnc12.[K] ?
4.77 ± 0.28 nmol/mg of protein

Data request, read-out Nitrites in brain: Cortex of cerebrum, for O=c1[nH][nH]c(=O)c2nccnc12.[Li]
4.91 ± 0.32 nmol/mg of protein

----------
Exercise: state measured Activity of NOC: Hypothalamus for each of the molecules provided.
- Tested on: synthase of nitrogen oxide (NOC)
- MEASUREMENT PROTOCOL: Morphine abstinence model: activity of synthase of nitrogen oxide (NOC), radiometric [3H]L-citrulline method
- Format: in vivo, rats Wistar
- RECORDED CONDITIONS: Control + Morphine + compound, 20.0 mg/kg intramuscularly; control 5.37 ± 0.20

Any idea what Activity of NOC: Hypothalamus was measured for O=c1[nH][nH]c(=O)c2ncccc12.[Li] [Compound 6] ?
5.24 ± 0.24 pmol/min/mg of protein

What does the record list as Activity of NOC: Hypothalamus for Nc1cccc2c(=O)[nH][nH]c(=O)c12.[Na] [Compound 15] ?
5.26 ± 0.28 pmol/min/mg of protein

# Activity of NOC: Hypothalamus lookup, item O=c1[nH][nH]c(=O)c2nccnc12.[Li] [Compound 25]
5.23 ± 0.27 pmol/min/mg of protein

Bench note: what Activity of NOC: Hypothalamus did O=c1[nH][nH]c(=O)c2c(Br)ncnc12.[K] [Compound 37] show?
5.59 ± 0.22 pmol/min/mg of protein
